Data credit: ChEMBL document CHEMBL1201862

Test system: HOP-92
Experiment: NCI tumour cell line growth inhibition, 48 h
Calls of active or inactive are those of the source. No stated cut-off is given here; in the data, active = GI50 up to about 1.1 µM and inactive = higher.
endpointLabel: GI50

Query :: Identify measured GI50 corresponding to `CCCCCCc1cc(C=O)sc1-c1ccc(-c2sc(-c3ccc(-c4ccc(-c5cc(CCCCCC)c(-c6ccc(-c7sc(C=O)cc7CCCCCC)s6)s5)s4)s3)cc2CCCCCC)s1`
Result :: > 100 µM (inactive)

Query :: Identify measured GI50 corresponding to CC(C)CNP(=O)(NCC(C)C)Oc1ccc(CC(NC(=O)OCc2ccccc2)C(=O)OCc2ccccc2)cc1 (stereo not given)
Result :: 61.4 µM (inactive)

Query :: Identify measured GI50 corresponding to CC[C@]12C=CCN3CC[C@@]4(c5cc(Br)c(OC)cc5N(C)[C@H]4[C@@](O)(C(=O)NC(Cc4c[nH]c5ccccc45)C(=O)OC)[C@@H]1O)[C@@H]32 (stereo not given in full)
Result :: 22.3 µM (inactive)

Query :: Identify measured GI50 corresponding to `C/C(=N\NS(=O)(=O)c1ccccc1)c1ccccc1`
Result :: > 100 µM (inactive)

Query :: Identify measured GI50 corresponding to COC1CC(C)(NC(C)=O)C2OC(c3ccccc3)OCC2O1 (stereo not given)
Result :: > 100 µM (inactive)

Query :: Identify measured GI50 corresponding to Cc1cn(C2CC(O)C(CO)C2C)c(=O)[nH]c1=O (stereo not given)
Result :: > 100 µM (inactive)

Query :: Identify measured GI50 corresponding to `Cc1n[nH]c(=O)n1N1C(=O)c2ccccc2C1=O`
Result :: > 100 µM (inactive)

Query :: Identify measured GI50 corresponding to CCC(C(=O)c1cccs1)C(O)(C(F)(F)F)C(F)(F)F (stereo not given)
Result :: > 100 µM (inactive)

Query :: Identify measured GI50 corresponding to `CN1CCN(P2(=S)Oc3ccc4ccccc4c3-c3c(ccc4ccccc34)O2)CC1`
Result :: 13.6 µM (inactive)

Query :: Identify measured GI50 corresponding to `O=S(=O)(N/N=C/c1ccc(/C=N/NS(=O)(=O)c2ccccc2)cc1)c1ccccc1`
Result :: 31.8 µM (inactive)

Query :: Identify measured GI50 corresponding to `CC(=O)Nc1cc2cc(NS(=O)(=O)c3cc(C(F)(F)F)cc(C(F)(F)F)c3)ccc2oc1=O`
Result :: > 100 µM (inactive)

Query :: Identify measured GI50 corresponding to `Cc1nc2ccc(Cl)cc2c2c1CCO2`
Result :: 80 µM (inactive)

Query :: Identify measured GI50 corresponding to `Cn1c2ccccc2c2c3c(c4c5ccccc5n(C)c4c21)C(=O)N(c1ccccc1)C3=O`
Result :: > 100 µM (inactive)

Query :: Identify measured GI50 corresponding to `N#Cc1nc(C#N)c(N)[nH]1`
Result :: > 100 µM (inactive)

Query :: Identify measured GI50 corresponding to `COc1ccc(OC)c(NC(=O)CCC/C(CC(=O)c2ccc(O)c(OC)c2)=N\Nc2ccc([N+](=O)[O-])cc2)c1`
Result :: 34.3 µM (inactive)

###

Tested on: IGROV-1
Assay: NCI tumour cell line growth inhibition, 48 h
Active and inactive are the calls of the source. No stated cut-off is given here; in the data, active = GI50 up to about 1.1 µM and inactive = higher.
endpointLabel: GI50

Query :: Identify measured GI50 corresponding to `O=C1C(=O)c2ccccc2C=C1[N+](=O)[O-]`
Result :: 13.8 µM (inactive)

Query :: Identify measured GI50 corresponding to `Cc1cccc(NC(=O)c2cc3cc(/N=N/c4ccccc4Cl)ccc3oc2=O)c1`
Result :: 32.1 µM (inactive)

Query :: Identify measured GI50 corresponding to `CC(=O)OC/C=C(/C=C/CNC1CCCCC1)OC(C)=O`
Result :: 18.6 µM (inactive)

Query :: Identify measured GI50 corresponding to `COC(=O)Cc1c([C@H]2[C@H](CC(=O)OC)c3ccccc3N2S(=O)(=O)c2ccc(C)cc2)[nH]c2ccccc12`
Result :: 3.13 µM (inactive)

Query :: Identify measured GI50 corresponding to O=C1NC(c2ccc(O)cc2)C2CCC1C2 (stereo unspecified)
Result :: > 100 µM (inactive)

Query :: Identify measured GI50 corresponding to CC12C=CC(C)(C3C(=O)C4C(C(=O)C31)C1(C)C=CC4(C)[S+]1[O-])[S+]2[O-] (stereo unspecified)
Result :: 83.9 µM (inactive)
